# Tested on: CHO cell line that expresses a soluble form of the IL1-receptor type II
# TEST: IL1RII expression by CHO cell line in shake flasks
# Assay type: cell-based, Chinese hamster
# SETTINGS: 0.5 millimolar compound, serum-free medium, 31° C. for 9 to 10 days
MEASUREMENT KIND: increase in IL1RII expression relative to control (%)
Give the quantity in %, number only.

Reference set, count: 3
[[record]]
compound = "O=C(O)CCc1ccccc1 [hydrocinnamic acid]"
val = 22

[[record]]
compound = "O=C(O)CCCCc1ccccc1"
val = 44

[[record]]
compound = "O=C(O)CCCc1ccccc1"
val = 21


Could you now consider this next compound?
### Prompt Reported increase in IL1RII expression relative to control, compound Cc1ccc(CCC(=O)O)cc1 : ____
### Response 15

###

# key: entry, value: increase in DsRed expression per viable cell relative to control
# Test system: fluorescent reporter gene DsRed under the control of an EASE/CMV promoter in CHO cells
# TEST: DsRed fluorescent reporter induction in CHO cell pools, 96 well format
# Assay type: cell-based, Chinese hamster
# SETTINGS: 0.5 mM compound; 96 well; 6 days at 31° C.; average over experiments
Give the quantity in %, number only.

[[record]]
compound = "O=C(O)CCc1ccccc1 [hydrocinnamic acid]"
target_desc = "fluorescent reporter gene DsRed under the control of an EASE/CMV promoter in CHO cells"
val = 60

[[record]]
compound = "Cc1ccc(CCC(=O)O)cc1 [3-(4-methylphenyl)propionic acid]"
target_desc = "fluorescent reporter gene DsRed under the control of an EASE/CMV promoter in CHO cells"
val = 70

[[record]]
compound = "O=C(O)CCCCc1ccccc1 [5-phenylvaleric acid]"
target_desc = "fluorescent reporter gene DsRed under the control of an EASE/CMV promoter in CHO cells"
val = 40


Could you now consider this next compound?
### Prompt Give increase in DsRed expression per viable cell relative to control (fluorescent reporter gene DsRed under the control of an EASE/CMV promoter in CHO cells) of the following compound: O=C(O)CCCc1ccccc1 [4-phenylbutyric acid]
### Response 60

The reported numbers originate from patent US20040265964A1.
